# Tested on: SK-OV-3 ovarian
# protocol.details: NCI-60 one-dose screen, 48 h
# conditions: 10 µM unless noted
This is part of a sample that, as a whole, favours compounds with a hit. Of some 83,000 tested, about 20% had one in any assay. Active and inactive are the calls of the source. The calls were made as follows: active = growth percent below 10; inactive = the rest.
API: response.call in active, inactive

* Cn1cc(-c2nnc(N)nc2-c2c[nH]c3ccc(F)cc23)c2cccnc21 | inactive
* CC(=O)NNc1ccc2nnc(-c3ccccc3)n2n1 | inactive
* COc1cccc(-c2c(C#N)c(-c3ccc(Cl)cc3)nc3n[nH]c(-c4ccc(Cl)cc4)c23)c1 | inactive

Turning to the following compound.
Problem: Assay result, entry CN1CCN(c2ccc3c(c2)nc(NNC(=O)c2ncccn2)c2cccn23)CC1 — outcome?
Solution: active

----------
# Tested on: NCI/ADR-RES ovarian
# protocol.details: NCI-60 one-dose screen, 48 h (100 = growth as untreated, 0 = no growth, -100 = all killed)
# conditions: 10 µM unless noted
Compounds without any hit were thinned out: in the full panel of roughly 83,000, 20% have a hit. The source made the active and inactive calls. Rule for the calls: active = growth percent below 10; inactive = the rest.
observed.property: growth

Previously resolved entries follow.
• N#Cc1c(-c2ccccc2Cl)cc(-c2c[nH]c3ccccc23)[nH]c1=O = 82.3% (inactive)
• CC(=O)Nc1cccc(Nc2nc(N[C@H]3CCCc4ccccc43)c3ccccc3n2)c1 = 100% (inactive)
• O=C1NC(=O)/C(=C/c2ccccc2OCc2cc3ccccc3nc2Cl)S1 = 87.6% (inactive)
• Cn1cc(-c2cc(N)n3nc(-c4c[nH]c5ccccc45)cc3n2)c2cccnc21 = 27.7% (inactive)
• Nc1nnc(-c2c[nH]c3ncc(Br)cc23)c(-c2c[nH]c3ccc(F)cc23)n1 = 70.7% (inactive)

Batch request: growth per item, same order as input.
1. O=C(/C=C/Nc1ccc2oc(=O)ccc2c1)c1cc2cc(Br)ccc2oc1=O
2. NS(=O)(=O)c1ccc(-n2cc(-c3cccc(NC(=O)c4cc(Cl)cc(Cl)c4)c3)nn2)cc1

Solution:
["109% (inactive)", "92.7% (inactive)"]

Batch request: growth per item, same order as input.
1. NS(=O)(=O)c1ccc(-n2cc(-c3cccc(NC(=O)c4cc(C(F)(F)F)cc(C(F)(F)F)c4)c3)nn2)cc1
2. COc1ccc2c(c1)c(-c1cc3nc(-c4cn(C)c5ncc(Br)cc45)cc(N)n3n1)cn2C

Solution:
["81.6% (inactive)", "-30.3% (active)"]

----------
# System: RPMI-8226 leukemia
# protocol.details: NCI-60 one-dose screen, 48 h
# conditions: 10 µM unless noted
Compounds without any hit were thinned out: in the full panel of roughly 83,000, 20% have a hit. The source made the active and inactive calls. Rule for the calls: active = growth percent below 10; inactive = the rest.
API: response.call in active, inactive

• COc1ccc2[nH]c(O)c(N=NC(=O)COc3ccc(NC(=O)Nc4ccccc4)cc3)c2c1 = inactive
• Brc1ccc(-c2n(Cc3ccc4ccccc4c3)c(-c3ccccc3)c(-c3ccccc3)[n+]2Cc2ccc3ccccc3c2)cc1 = active
• COc1ccc(/C=C2\C(=N)N=C(SCc3nc4ccccc4[nH]3)NC2=O)cc1 = inactive
• CN1CCN(Cc2ccc(C(=O)Nc3cccc(C#Cc4cccc5[nH]nc(N)c45)c3)cc2C(F)(F)F)CC1 = active
• O=C(/C=C/Nc1ccc(Cl)cc1)c1ccc2c(c1)Nc1ccccc1S2 = inactive
• C#CCOc1cc(N(CC)CC)ccc1C(C(=O)NC(C)(C)C)N(C(=O)C1CCc2cc(F)ccc2O1)c1ccc(F)cc1 (stereo unspecified) = inactive
• COc1ccc2[nH]cc(-c3nc(N)nnc3-c3cn(C)c4ncccc34)c2c1 = inactive
• COc1ccc(NC(=O)[C@H](CO)NC(=O)OC(C)(C)C)cc1C(=O)Nc1cccc(C2CC(=O)c3c(cc(OC)c(OC)c3OC)O2)c1 (stereo partly specified) = inactive

Problem: Assay result, entry CC(C)CSc1nc(NCCc2c[nH]c3ccccc23)c(C#N)c(-c2ccc(Cl)cc2)n1 — outcome?
Solution: inactive

Problem: Assay result, entry Cc1ccc(S(=O)(=O)c2nc(S(=O)(=O)c3ccc(C)cc3)c(Cl)s2)cc1 — outcome?
Solution: active

Problem: Assay result, entry C=C1CCC2C3(C)COC(c4ccccc4)OC3CCC2(C)C1CC(NCc1ccccc1)C1=CCOC1=O (stereo unspecified) — outcome?
Solution: inactive

Problem: Assay result, entry O=C(COc1ccc(NC(=O)Nc2ccc(Cl)cc2)cc1)N/N=C/c1ccccc1 — outcome?
Solution: active

Problem: Assay result, entry C=CC[N+](C)(C)CCn1c2ccccc2c2nc3cc(C)c(C)cc3nc21 — outcome?
Solution: inactive

Problem: Assay result, entry CCN1CCN(Cc2ccc(C(=O)Nc3cccc(C#Cc4cccc5[nH]nc(N)c45)c3)cc2C(F)(F)F)CC1 — outcome?
Solution: active

Problem: Assay result, entry CCOC(=O)C(N=Nc1ccc(S(=O)(=O)N=C(N)N)cc1)C(C)=O (stereo unspecified) — outcome?
Solution: inactive

Problem: Assay result, entry COc1cc(/C=C/C(=O)c2nnn(-c3ccc(Cl)cc3)c2C)cc(OC)c1OC — outcome?
Solution: active

Problem: Assay result, entry CC(=O)OC[C@@]1(C)C2CC[C@]3(C)C(CC=C4C5CC(C)(C)CC[C@]5(C(=O)Nc5ccc(C)cc5)CC[C@]43C)[C@@]2(C)C[C@@H](OC(C)=O)[C@@H]1OC(C)=O (stereo partly specified) — outcome?
Solution: inactive

Problem: Assay result, entry O=C(NN1C(=O)/C(=C/C=C/c2ccc([N+](=O)[O-])o2)SC1=S)c1ccccc1O — outcome?
Solution: active

Problem: Assay result, entry Cn1cc(-c2nc(N)nnc2-c2c[nH]c3ccc(Br)cc23)c2cc(Br)cnc21 — outcome?
Solution: active

Problem: Assay result, entry CCOC(=O)C1=C(N)N(c2ccccc2)C2=C(C(=O)CC(C)(C)C2)C1c1ccc(N2CCOCC2)cc1 (stereo unspecified) — outcome?
Solution: inactive

Problem: Assay result, entry COc1ccccc1C(=O)NN1C(=O)/C(=C/C2=Cc3ccccc3OC2)SC1=S — outcome?
Solution: inactive

Problem: Assay result, entry COc1cc(-c2nc3ccc(C)cc3[nH]2)ccc1OCc1nnc(-c2ccc(Br)cc2)o1 — outcome?
Solution: active

Problem: Assay result, entry CN(C)c1ccnc(CNCCSC2(c3ccccc3)c3ccccc3C=Cc3ccccc32)c1 — outcome?
Solution: active
